# Target: Heat shock factor protein 1 (Mus musculus)
# Sequence (P38532 whole entry): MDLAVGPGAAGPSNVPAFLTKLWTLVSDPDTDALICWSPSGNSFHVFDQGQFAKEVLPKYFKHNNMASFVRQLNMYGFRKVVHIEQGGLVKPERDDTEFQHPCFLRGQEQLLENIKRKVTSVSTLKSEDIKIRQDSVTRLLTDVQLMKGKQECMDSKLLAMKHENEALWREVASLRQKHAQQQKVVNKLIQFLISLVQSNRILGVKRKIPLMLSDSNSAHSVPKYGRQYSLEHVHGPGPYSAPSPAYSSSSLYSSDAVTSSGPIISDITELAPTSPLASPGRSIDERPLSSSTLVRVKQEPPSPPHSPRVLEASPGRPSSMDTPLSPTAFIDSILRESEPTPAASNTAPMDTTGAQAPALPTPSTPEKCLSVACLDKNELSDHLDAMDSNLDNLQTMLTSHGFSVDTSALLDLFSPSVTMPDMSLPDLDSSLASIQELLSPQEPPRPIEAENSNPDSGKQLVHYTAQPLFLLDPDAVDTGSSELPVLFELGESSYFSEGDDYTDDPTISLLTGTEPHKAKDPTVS
# Assay comment: inhibition of MG132-induced HSE-luciferase signal, confirmation, cell-based, NIH3T3, luminescence, dose retest (AID 2382);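 note: NIH3T3 fibroblasts with HSF1-driven luciferase reporter stressed by proteasome inhibitor MG132; luminescence from HSF1-driven luciferase expression after 8 hours of MG132 stress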
# Format: functional
Calls of active or inactive are those of the source.
EC50 by entry:

{"Compound": "CCOC(=O)C1=C(CN2CCN(C(=O)c3ccco3)CC2)NC(=O)NC1c1ccc(OC)cc1 (stereo not given)", "EC50": "> 195 µM (not active)"}
{"Compound": "CCCCn1c(=O)[nH]c(=O)c2c1nc(Cn1ncc(Cl)c(Cl)c1=O)n2CCC", "EC50": "2.89 µM (active)"}
{"Compound": "CC(C)Oc1ccc(CNC(=S)N/N=C/c2ccc([N+](=O)[O-])cc2)cc1", "EC50": "> 195 µM (not active)"}
{"Compound": "CCOc1ccccc1/C=C/c1onc(C)c1S(=O)(=O)N1CCC(C(=O)NC(C)(C)C)CC1", "EC50": "> 195 µM (not active)"}
{"Compound": "O=C1C(Cc2ccccc2)Nc2ncnc(N3CCN(c4ccccc4)CC3)c2N1Cc1ccccc1 (stereo not given)", "EC50": "> 195 µM (not active)"}
{"Compound": "Nc1nc(Cl)nc2ccc(Br)cc12", "EC50": "5.71 µM (active)"}
{"Compound": "O=C(NCC1CCCN(C2Cc3ccccc3C2)C1)c1cccs1 (stereo not given)", "EC50": "> 195 µM (not active)"}
{"Compound": "O=C(CSc1nccn1Cc1ccco1)Nc1cccc(F)c1", "EC50": "> 195 µM (not active)"}
{"Compound": "COc1ccc(CCNC(=O)c2ccc(N(C)S(=O)(=O)c3ccc(C)cc3)cc2)cc1", "EC50": "> 195 µM (not active)"}
{"Compound": "CCn1ccnc1CN(C)C(=O)c1cc(COc2ccc(Cl)cc2OC)on1", "EC50": "> 195 µM (not active)"}

----------
# Target: Long-chain-fatty-acid--AMP ligase FadD28 (Mycobacterium tuberculosis, UniProt P9WQ59)
# Sequence (P9WQ59 whole entry): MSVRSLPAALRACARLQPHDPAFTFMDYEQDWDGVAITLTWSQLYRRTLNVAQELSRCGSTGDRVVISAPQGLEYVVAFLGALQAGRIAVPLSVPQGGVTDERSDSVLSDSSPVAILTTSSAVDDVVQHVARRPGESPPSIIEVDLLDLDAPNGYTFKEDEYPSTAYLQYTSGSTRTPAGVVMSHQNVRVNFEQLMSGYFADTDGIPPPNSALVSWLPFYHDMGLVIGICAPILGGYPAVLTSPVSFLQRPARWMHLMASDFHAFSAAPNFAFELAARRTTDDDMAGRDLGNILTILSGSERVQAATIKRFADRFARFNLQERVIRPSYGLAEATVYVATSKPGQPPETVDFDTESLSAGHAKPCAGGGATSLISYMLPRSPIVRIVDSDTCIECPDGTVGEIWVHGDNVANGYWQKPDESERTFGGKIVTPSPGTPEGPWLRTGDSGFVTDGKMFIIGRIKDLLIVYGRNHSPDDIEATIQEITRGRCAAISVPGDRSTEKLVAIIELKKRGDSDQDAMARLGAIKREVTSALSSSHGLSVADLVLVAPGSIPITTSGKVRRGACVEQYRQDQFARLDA
# Assay comment: Fluorescence polarization aasay to screen for inhibitors that compete for the binding of FadD28 to a bisubstrate Measured in Biochemical System Using Plate Reader - 2147-01_Inhibitor_Dose_CherryPick_Activity.
# Assay type: functional, Mycobacterium tuberculosis H37Rv
Calls of active or inactive are those of the source.
Outcome codes: 1 (yes) for active, 0 (no) for inactive

{"Compound": "CC[n+]1c(-c2ccccc2)c2cc(N)ccc2c2ccc(N)cc21 [HOMIDIUM BROMIDE]", "Class label": "1 (yes)"}
{"Compound": "Nc1ccc(S(=O)(=O)c2cc(O)c3ccccc3c2O)cc1", "Class label": "0 (no)"}
{"Compound": "Cc1ccc(C2CC(=O)NC(SCC(=O)Nc3nccs3)=C2C#N)cc1 (centres undefined)", "Class label": "1 (yes)"}
{"Compound": "C/C(=N\\NC(=O)c1cccc(Cl)c1)C1C(=O)c2ccccc2C1=O", "Class label": "1 (yes)"}
